Here, each record is paired with measured selectivity ratio data.
test-details: 50% anesthetic dose in mice (i.v.)
Type: in vivo, mouse
particulars: in vivo, iv; mouse, i.v.; read-out: LD50/AD50
measured-parameter: selectivity ratio

| compound | measured-parameter | reading |
| --- | --- | --- |
| CCCC(C)C1(CC)C(=O)NC(=S)NC1=O (centres unmarked) [Thiopental-Na, reference compound] | selectivity ratio | 4.3 |
| CCOC=CC(=O)N1C[C@H](C)N(CCCc2ccccc2)C[C@H]1C.O=C(O)/C=C\C(=O)O (relative stereo) [KA-100, maleate] | selectivity ratio | 4.9 |

* * *

test-details: 50% lethal dose in rats (i.v.)
particulars: in vivo, iv, rat
Here, each record is paired with measured LD50 data.
measured-parameter: LD50 (mg/kg)

| molecule | reading |
| --- | --- |
| CCCC(C)C1(CC)C(=O)NC(=S)NC1=O (centres unmarked) [Thiopental-Na, reference compound] | 80.3 |
| CCOC=CC(=O)N1C[C@H](C)N(CCCc2ccccc2)C[C@H]1C.O=C(O)/C=C\C(=O)O (relative stereo) [KA-100] | 60.2 |
